Data credit: ChEMBL document CHEMBL2321662

target: Sodium-dependent noradrenaline transporter (Homo sapiens); assay: Inhibition of human recombinant NET expressed in HEK cells
Sequence (P23975 whole entry): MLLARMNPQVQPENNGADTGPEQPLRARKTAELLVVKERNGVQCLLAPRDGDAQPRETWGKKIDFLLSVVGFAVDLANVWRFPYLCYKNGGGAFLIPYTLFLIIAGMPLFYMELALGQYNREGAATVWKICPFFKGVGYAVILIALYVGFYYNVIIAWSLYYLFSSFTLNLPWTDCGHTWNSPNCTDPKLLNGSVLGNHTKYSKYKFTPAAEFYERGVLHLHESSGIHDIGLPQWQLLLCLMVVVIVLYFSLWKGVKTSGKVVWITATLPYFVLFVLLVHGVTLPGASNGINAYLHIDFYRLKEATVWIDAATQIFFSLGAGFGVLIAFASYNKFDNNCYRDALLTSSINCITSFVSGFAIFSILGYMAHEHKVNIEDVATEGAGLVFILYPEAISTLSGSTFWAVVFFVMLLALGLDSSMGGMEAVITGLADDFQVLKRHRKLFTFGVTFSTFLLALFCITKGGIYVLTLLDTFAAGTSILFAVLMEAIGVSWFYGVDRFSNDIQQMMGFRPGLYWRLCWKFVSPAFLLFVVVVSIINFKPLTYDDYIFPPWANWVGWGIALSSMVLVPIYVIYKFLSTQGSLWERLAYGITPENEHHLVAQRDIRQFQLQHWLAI
pKi: −log10 of the molar value.
Cut-off 7 on pKi, inclusive. At or above means y; below means n.

A selection of reference data follows.
[[record]]
molecule = "CN1CC=CC[C@@H](c2ccc(Cl)c(Cl)c2)C1"
target = "Sodium-dependent noradrenaline transporter (Homo sapiens)"
class_assignment = "y"

[[record]]
molecule = "OCC[C@@]1(c2ccc(Cl)c(Cl)c2)CCCNC1"
target = "Sodium-dependent noradrenaline transporter (Homo sapiens)"
class_assignment = "n"

[[record]]
molecule = "C1=CCC(c2cc3ccccc3o2)CNC1 (stereo not given)"
target = "Sodium-dependent noradrenaline transporter (Homo sapiens)"
class_assignment = "y"

[[record]]
molecule = "CN1CC=CC[C@H](c2ccc(Cl)c(Cl)c2)C1"
target = "Sodium-dependent noradrenaline transporter (Homo sapiens)"
class_assignment = "y"

[[record]]
molecule = "Clc1ccc([C@H]2CC=CCNC2)cc1Cl"
target = "Sodium-dependent noradrenaline transporter (Homo sapiens)"
class_assignment = "y"

[[record]]
molecule = "OCC[C@@]1(c2cc3ccccc3o2)CCCNC1"
target = "Sodium-dependent noradrenaline transporter (Homo sapiens)"
class_assignment = "n"


Consider the record given below.
Assess whether reported pKi for OCCN1CC=CC[C@H](c2ccc(Cl)c(Cl)c2)C1 sits at 7 or higher. y
